# Target Desc: Human PD-L1/PD-1 (Homo sapiens, UniProt Q9NZQ7)
# Construct: TVMV protease cleavage site (C); made in house; host or cells: HEK293T cells
# Sequence (Q9NZQ7 with tags, fused parts or gaps): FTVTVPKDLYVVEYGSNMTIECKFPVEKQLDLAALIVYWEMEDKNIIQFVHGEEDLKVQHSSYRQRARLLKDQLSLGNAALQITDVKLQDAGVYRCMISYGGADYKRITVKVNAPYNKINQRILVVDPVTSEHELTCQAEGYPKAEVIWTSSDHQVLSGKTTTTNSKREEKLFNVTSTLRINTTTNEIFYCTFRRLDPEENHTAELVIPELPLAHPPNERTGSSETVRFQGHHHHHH
# Protocol Details: HTRF Human PD-L1/PD-1 binding assay (PD-1-Ig/PD-L1-His)
# Measurement Context: PD-L1-His 10 nM, PD-1-Ig 20 nM; class symbol; read-out: HTRF Human PD-L1/PD-1 Binding Assay IC50 Range
Where a SMILES comes first, the peptide text is derived from it. Bridges are numbered along the chain shown (N, C = ends). [ ]: non-standard residue; d: D form. ξ: configuration not given here. NMeF = CN[C@@H](Cc1ccccc1)C(=O)O; NMeNle = CCCC[C@H](NC)C(=O)O; dPip = O=C(O)[C@H]1CCCCN1; NMeA = CN[C@@H](C)C(=O)O; dThz = O=C(O)[C@H]1CSCN1; ξP = O=C(O)C1CCCN1; Sar = CNCC(=O)O
Documented IC50 across a set of molecules

Molecule	Target Desc	IC50
CCCC[C@H]1C(=O)N2CCC[C@@H]2C(=O)N[C@@H](CC(=O)O)C(=O)N[C@@H](C)C(=O)N(C)[C@@H](Cc2ccccc2)C(=O)N[C@@H](Cc2ccc(O)cc2)C(=O)N2CCCC[C@@H]2C(=O)N[C@@H](Cc2c[nH]c3ccccc23)C(=O)N[C@@H](Cc2ccc(O)cc2)C(=O)N[C@@H](CC(C)C)C(=O)N[C@H](C(=O)NCC(N)=O)CSCC(=O)N[C@@H](Cc2ccccc2)C(=O)N(C)[C@@H](Cc2ccccc2)C(=O)N1C [Example 10087] ({CH2CO}-F[NMeF][NMeNle][dP]DA[NMeF]Y[dPip]WYLCG-NH2; thioether N-13)	Human PD-L1/PD-1 (Homo sapiens, UniProt Q9NZQ7)	10 to 99.9 nM
CCCC[C@H]1C(=O)N(C)CC(=O)N[C@@H](CC(N)=O)C(=O)N[C@@H](C(C)C)C(=O)N(C)[C@@H](Cc2ccccc2)C(=O)N[C@@H](Cc2ccc(O)cc2)C(=O)N(C)CC(=O)N[C@@H](Cc2c[nH]c3ccccc23)C(=O)N[C@@H](Cc2ccc(O)cc2)C(=O)N[C@@H](CCCN)C(=O)N[C@H](C(=O)NCC(N)=O)CSCC(=O)N[C@@H](Cc2ccccc2)C(=O)N(C)[C@@H](Cc2ccncc2)C(=O)N1C (single isomer, unassigned) [Example 3638-B]	Human PD-L1/PD-1 (Homo sapiens, UniProt Q9NZQ7)	10 to 99.9 nM

Endpoint output: IC50 of CCCC[C@H]1C(=O)N(C)[C@@H](CCCC)C(=O)N[C@@H](CC(C)C)C(=O)N[C@H](C(=O)NCC(N)=O)CSCC(=O)N[C@@H](Cc2ccc(O)cc2)C(=O)N(C)[C@@H](C)C(=O)N[C@@H](CC(N)=O)C(=O)N2CCCC2C(=O)N[C@@H](Cc2cnc[nH]2)C(=O)N[C@@H](CCC(N)=O)C(=O)N[C@H](C)C(=O)N[C@@H](Cc2c[nH]c3ccccc23)C(=O)N[C@@H](CO)C(=O)N[C@@H](Cc2c[nH]c3ccccc23)C(=O)N1C (stereo partly shown) [Example 6168] ({CH2CO}-Y[NMeA]N[ξP]HQ[dA]WSW[NMeNle][NMeNle]LCG-NH2; thioether N-14) . Value? 10 to 99.9 nM

Could you tell me which IC50 is on file for CCCC[C@H]1C(=O)N2CSC[C@@H]2C(=O)N[C@@H](CC(=O)O)C(=O)N[C@@H](C)C(=O)N(C)[C@@H](Cc2ccccc2)C(=O)N[C@@H](Cc2ccc(O)cc2)C(=O)N(C)CC(=O)N[C@@H](Cc2c[nH]c3ccccc23)C(=O)N[C@@H](Cc2ccc(O)cc2)C(=O)N[C@@H](CC(C)C)C(=O)N[C@H](C(=O)NCC(N)=O)CSCC(=O)N[C@@H](Cc2ccccc2)C(=O)N(C)[C@@H](Cc2ccccc2)C(=O)N1C [Example 10085] ({CH2CO}-F[NMeF][NMeNle][dThz]DA[NMeF]Y[Sar]WYLCG-NH2; thioether N-13) ? 100 to 990 nM
